# assay.info: in vivo
# recorded.conditions: male, Wistar, rat, iv, 1 mg/kg, pH 7.4
readout.label: clearance (mL/min/kg)
Supply the numeric figure in mL/min/kg, leaving out any unit text.

Fill in: clearance of Cc1cc(OCCOCCC(F)(F)P(=O)(O)O)ccc1CCc1cnc2c(N)nc3cc(CCC(=O)O)ccc3c2c1 is ___
9.2

---

# assay.info: Mouse plasma PK, MC38 syngeneic tumor model, one week study
# Format: in vivo
# recorded.conditions: female, C57BL/6, mouse, other: intra-tumoral (i.t.) injection, 100 ug, 100 μg Compound 15, single i.t. injection, MC38 tumor bearing mice
readout.label: half-life (h)
Supply the numeric figure in h, leaving out any unit text.

Fill in: half-life of Cc1cc(OCCOCCC(F)(F)P(=O)(O)O)ccc1CCc1cnc2c(N)nc3cc(CCC(=O)O)ccc3c2c1 [Compound 15] is ___
2.65

---

# assay.info: in vivo
# recorded.conditions: female, C57/BL6, mouse, iv, 2 mg/kg
readout.label: MRT
Give your result as the value with the unit written after it.

Fill in: MRT of Cc1cc(OCCOCCC(F)(F)P(=O)(O)O)ccc1CCc1cnc2c(N)nc3cc(CCC(=O)O)ccc3c2c1 [Compound 15] is ___
10.2 min

---

# assay.info: Mouse plasma PK, MC38 syngeneic tumor model, one week study
# Format: in vivo
# recorded.conditions: female, C57BL/6, mouse, 100 ug, 100 μg Compound 15, single i.t. injection, MC38 tumor bearing mice
readout.label: Cmax (ng/mL)
Supply the numeric figure in ng/mL, leaving out any unit text.

Fill in: Cmax of Cc1cc(OCCOCCC(F)(F)P(=O)(O)O)ccc1CCc1cnc2c(N)nc3cc(CCC(=O)O)ccc3c2c1 is ___
10600

---

# assay.info: Wistar rat subcutaneous PK dose study (Example 9)
# Format: in vivo
# recorded.conditions: sc, 600 ug, 600 μg Compound 15 s.c., male Wistar rats, plasma
readout.label: AUC(0-inf) (ng·h/mL)
Supply the numeric figure in ng·h/mL, leaving out any unit text.

Fill in: AUC(0-inf) of Cc1cc(OCCOCCC(F)(F)P(=O)(O)O)ccc1CCc1cnc2c(N)nc3cc(CCC(=O)O)ccc3c2c1 is ___
2560

---

# assay.info: in vivo
# recorded.conditions: male, Wistar, rat, iv, 1 mg/kg
# Experimental: Note: The pharmacokinetic properties of Compound 15 in 50 mM Tris/0.9% NaCl (pH 7.4) were examined in male Wistar rats following a single 1 mg/kg intravenous bolus administration.
readout.label: half-life (h)
Supply the numeric figure in h, leaving out any unit text.

Fill in: half-life of Cc1cc(OCCOCCC(F)(F)P(=O)(O)O)ccc1CCc1cnc2c(N)nc3cc(CCC(=O)O)ccc3c2c1 is ___
1.2

---

# assay.info: in vivo
# recorded.conditions: male, Wistar, rat, iv, 1 mg/kg
readout.label: MRT (min)
Supply the numeric figure in min, leaving out any unit text.

Fill in: MRT of Cc1cc(OCCOCCC(F)(F)P(=O)(O)O)ccc1CCc1cnc2c(N)nc3cc(CCC(=O)O)ccc3c2c1 is ___
12

---

# assay.info: Wistar rat subcutaneous PK, fixed aluminum hydroxide 5 mg/mL (Example 10)
# Assay type: in vivo
# recorded.conditions: rat, sc, 600 ug; 600 μg Compound 15 s.c., male Wistar rats, plasma, Table 15 (free compound data from Example 9)
readout.label: Cmax (ng/mL)
Supply the numeric figure in ng/mL, leaving out any unit text.

Fill in: Cmax of Cc1cc(OCCOCCC(F)(F)P(=O)(O)O)ccc1CCc1cnc2c(N)nc3cc(CCC(=O)O)ccc3c2c1 is ___
3660

---

# assay.info: in vivo
# recorded.conditions: female, C57/BL6, mouse, iv, 2 mg/kg
readout.label: clearance (mL/min/kg)
Supply the numeric figure in mL/min/kg, leaving out any unit text.

Fill in: clearance of Cc1cc(OCCOCCC(F)(F)P(=O)(O)O)ccc1CCc1cnc2c(N)nc3cc(CCC(=O)O)ccc3c2c1 [Compound 15] is ___
18.1

---

# assay.info: in vivo
# recorded.conditions: female, C57/BL6, mouse, iv, 2 mg/kg
readout.label: half-life (h)
Supply the numeric figure in h, leaving out any unit text.

Fill in: half-life of Cc1cc(OCCOCCC(F)(F)P(=O)(O)O)ccc1CCc1cnc2c(N)nc3cc(CCC(=O)O)ccc3c2c1 is ___
1

---

# assay.info: Wistar rat subcutaneous PK dose study (Example 9)
# Format: in vivo
# recorded.conditions: sc, 600 ug, 600 μg Compound 15 s.c., male Wistar rats, plasma
readout.label: Cmax (ng/mL)
Supply the numeric figure in ng/mL, leaving out any unit text.

Fill in: Cmax of Cc1cc(OCCOCCC(F)(F)P(=O)(O)O)ccc1CCc1cnc2c(N)nc3cc(CCC(=O)O)ccc3c2c1 is ___
3660

---

# assay.info: Adsorption of compounds to aluminum hydroxide in histidine buffer (pH 6.8)
# Type: physicochemical
# recorded.conditions: histidine buffer pH 6.8, 0.1 mg/mL compound, 37° C. 5 hours
readout.label: % Bound (%)
Supply the numeric figure in %, leaving out any unit text.

>  <compound>
Cc1cc(OCCCC(F)(F)P(=O)(O)O)ccc1CCc1cnc2c(N)nc3cc(CCC(=O)O)ccc3c2c1 [Compound 17]

>  <% Bound / %>
94.5

$$$$
>  <compound>
Cc1cc(OCCOCCC(F)(F)P(=O)(O)O)ccc1CCc1cnc2c(N)nc3cc(CCC(=O)O)ccc3c2c1 [Compound 15]

>  <% Bound / %>
96.0

$$$$
>  <compound>
Cc1ccc2c(c1)nc(N)c1ncc(CCc3ccc(OCCOCCOCCC(F)(F)P(=O)(O)O)cc3C)cc12 [Compound 1]

>  <% Bound / %>
98.2

$$$$
>  <compound>
Cc1cc(OCCOCCOCCC(F)(F)P(=O)(O)O)ccc1CCc1cnc2c(N)nc3cc(CCC(=O)O)ccc3c2c1 [Compound 18]

>  <% Bound / %>
96.2

$$$$

Fill in: % Bound of Cc1cc(OCCOCCOCCP(=O)(O)O)ccc1CCc1cnc2c(N)nc3cc(CCC(=O)O)ccc3c2c1 [Compound 20] is ___
97.0

Numbers sourced from patent US11752162B2.
